Tested on: PC-3 cells (prostate cancer)
experimental-details: Cytotoxicity IC50, MTS assay, PC-3 cells
Assay type: cell-based
cond: Homo sapiens, 72 hours after treatment, read-out: IC-50 values (in nM), PC-3
metric-name: IC50 (nM)
Supply the numeric figure in nM, leaving out any unit text.

In plain terms, Cc1ccc([N+](=O)[O-])cc1S(=O)(=O)N(C)/N=C/c1cnc2ccc(Br)cn12.Cl has a documented IC50 of 28.1

----------
System: SR-786 cells (anaplastic large cell lymphoma)
experimental-details: Cytotoxicity IC50, MTS assay, SR-786 cells
Type: cell-based
cond: 72 hours after treatment, read-out: IC-50 values (in nM), SR-786
metric-name: IC50
Hi, when you answer, please include the unit after the number. Thanks!

In plain terms, Cc1ccc([N+](=O)[O-])cc1S(=O)(=O)N(C)/N=C/c1cnc2ccc(Br)cn12.Cl has a documented IC50 of 12.6 nM
